Taken from ChEMBL document CHEMBL1201862.

- Test system: NCI-H522
- PROTOCOL DESCRIPTION: NCI tumour cell line growth inhibition, 48 h
Activity calls are given as the source filed them. No stated cut-off is given here; in the data, active = GI50 up to about 1.1 µM and inactive = higher.
MEASUREMENT LABEL: GI50

Task item: Form field: GI50 recorded for COC(=O)C1=C(O)C(C(=O)OC)[C@]2(O)[C@H](C(=O)OC)[C@H]1C[C@@H](c1ccccc1OC)[C@H]2C(=O)OC (some centres undefined) with NCI-H522 (enter value)
Reply: 1.84 µM (inactive)

Task item: Form field: GI50 recorded for CCOC(=O)CC/C(C)=N\n1c(Cc2ccc(Cl)cc2)n[nH]c1=O with NCI-H522 (enter value)
Reply: > 100 µM (inactive)

Task item: Form field: GI50 recorded for CNC(=O)N(C)/N=N/CCCl with NCI-H522 (enter value)
Reply: > 100 µM (inactive)

Task item: Form field: GI50 recorded for O=C(NCCN1C(=O)CN=C(c2ccc(Cl)cc2)c2cc(Cl)ccc21)OCc1ccccc1 with NCI-H522 (enter value)
Reply: 15.5 µM (inactive)

Task item: Form field: GI50 recorded for COC(=O)C1OC(O[C@H]2CC[C@]3(C)[C@H]4CC=C5[C@@H]6CC(C)(C)CC[C@]6(C(=O)OC)[C@H](O)C[C@@]5(C)[C@]4(C)CC[C@H]3C2(C)C)C(O)C(O)C1O (some centres undefined) with NCI-H522 (enter value)
Reply: 1.57 µM (inactive)

Task item: Form field: GI50 recorded for CN1CN(c2ccccc2)C2(CCN(CCC3COc4ccccc4O3)CC2)C1=O (centres undefined) with NCI-H522 (enter value)
Reply: 13.8 µM (inactive)

Task item: Form field: GI50 recorded for NC(=S)Nc1ccc2c(c1)oc1ccccc12 with NCI-H522 (enter value)
Reply: 7.57 µM (inactive)

Task item: Form field: GI50 recorded for Cc1cc2c(ccc3c(C)cc(=O)oc32)o1 with NCI-H522 (enter value)
Reply: > 83.6 µM (inactive)

Task item: Form field: GI50 recorded for O=C1C[C@@H]2[C@@H](CCC23CCCC3)N1 with NCI-H522 (enter value)
Reply: > 100 µM (inactive)

###

- System: SF-295
- PROTOCOL DESCRIPTION: NCI tumour cell line growth inhibition, 48 h
Calls of active or inactive are those of the source. No stated cut-off is given here; in the data, active = GI50 up to about 1.1 µM and inactive = higher.
Valid outcomes are listed here; reply with one: TRUE = active, FALSE = inactive

Task item: What classification did Cc1c2ccccc2c(=O)n2c(-c3ccccn3)cccc12 end up with in this test?
Reply: FALSE

Task item: What classification did Nc1nc(OCC2CCCCC2)c2nc[nH]c2n1 end up with in this test?
Reply: FALSE

Task item: What classification did O=C1CC(n2cccc2)c2c(Br)sc(Br)c21 (stereo unspecified) end up with in this test?
Reply: FALSE

Task item: What classification did CCC(=O)O[C@@H]1C2C(OC(C)=O)C34COC(C)([C@@H]3C3C(C[C@]3(C)OC(C)=O)[C@@H](OC(=O)c3ccccc3)C4=O)[C@H](OC(C)=O)[C@@]2(OC(C)=O)C[C@@H]1C (stereo partly specified) end up with in this test?
Reply: FALSE

Task item: What classification did C=C1CC2CC[C@@]34C[C@@H]5O[C@@H]6C(O[C@H]7CC[C@H](CC(=O)OC8[C@@H](C)C9OC%10C[C@]%11(C[C@@H]%12O[C@@]%13(C[C@@H](C)[C@@H]%12O%11)C[C@H](C)[C@@H]%11OC%12CC(C(O)CO)OC%12C[C@@H]%11O%13)OC%10CC9O[C@H]8C[C@H]8O[C@@H](CC[C@@H]1O2)C[C@@H](C)C8=C)O[C@@H]7[C@@H]6O3)C5O4 (stereo partly specified) end up with in this test?
Reply: TRUE

Task item: What classification did O=C1OC(=O)C2C1C1C(c3ccccc3)=C(c3ccccc3)C2(O)C2C(=O)OC(=O)C12 (stereo unspecified) end up with in this test?
Reply: FALSE

Task item: What classification did Cc1cc(C)nc(NS(=O)(=O)c2ccc(NC(=O)c3ccc4nc5ccccc5c(Nc5ccc(S(=O)(=O)N=C(N)N)cc5)c4c3)cc2)n1 end up with in this test?
Reply: FALSE

Task item: What classification did C[N+](C)(C)c1ncnc2c1ncn2C1CCCCO1 (stereo unspecified) end up with in this test?
Reply: FALSE

Task item: What classification did CC1=C(Br)C(=O)C(C)=C(Br)C1=O.Cc1c(O)c(Br)c(C)c(O)c1Br end up with in this test?
Reply: FALSE

Task item: What classification did Oc1c(/N=N/c2ccccc2)c2ccccc2c2ccc3ccccc3c12 end up with in this test?
Reply: FALSE

Task item: What classification did CC(=O)NCCc1c(-c2[nH]c3ccccc3c2CCNC(C)=O)[nH]c2ccccc12 end up with in this test?
Reply: FALSE

Task item: What classification did O=C1C(Cl)=C(Nc2ccc(S(=O)(=O)Nc3ccccn3)cc2)C(=O)c2ccccc21 end up with in this test?
Reply: FALSE

Task item: What classification did O=C(CCC(NC(=O)OCc1ccccc1)C(=O)OCc1ccccc1)Nc1ccc(OCc2ccccc2)cc1 (stereo unspecified) end up with in this test?
Reply: FALSE

Task item: What classification did C=CCNC1=C2C[C@@H](C)C[C@@H](OC)[C@H](OC(=O)CN(C)C)[C@H](C)/C=C(\C)[C@@H](OC(N)=O)[C@H](OC)/C=C\C=C(/C)C(=O)NC(=CC1=O)C2=O end up with in this test?
Reply: TRUE

Task item: What classification did Cc1cc2c(cc1C)[n+]([O-])c(C(=O)CC(=O)C(=O)Nc1ccccc1C)c(C)[n+]2[O-] end up with in this test?
Reply: FALSE

Task item: What classification did O=S1(=O)NN=C(NCc2ccc(Cl)cc2)c2ccccc21 end up with in this test?
Reply: FALSE
